test system: PC-3 prostate; test: NCI tumour cell line growth inhibition, 48 h; in the data active means GI50 below about 0.43 µM; inactive means the rest
Classes used: t (active), f (inactive)

{"COMPOUND": "CC(CN)[C@@H]1CC[C@]2(CO)CC[C@]3(C)[C@H](CC[C@@H]4[C@@]5(C)CCC(NCCO)C(C)(C)[C@@H]5CC[C@]43C)[C@@H]12 (stereo partly drawn)", "CATEGORY_LABEL": "f"}
{"COMPOUND": "C#CCN1CCN(C(=S)N/N=C(\\C)c2ccccn2)CC1", "CATEGORY_LABEL": "t"}
{"COMPOUND": "COc1cc2c3c(n(CCCN4CCN(C)CC4)c(=O)c2cc1OC)-c1cc2c(cc1C3=O)OCO2", "CATEGORY_LABEL": "f"}

----------
system: LXFL 529 NSCLC; assay: NCI tumour cell line growth inhibition, 48 h
METRIC_NAME: TGI

{"COMPOUND": "C[n+]1c2ccccc2c(CNC(CCC(N)=O)C(=O)O)c2ccccc21 (stereo unspecified)", "RECORDED_MEASUREMENT": "2.26 µM"}
{"COMPOUND": "CN1N=C2c3ccccc3CC[C@H]2C1c1ccccc1 (stereo partly specified)", "RECORDED_MEASUREMENT": "> 100 µM"}
{"COMPOUND": "O=C(CSc1nnc(Cc2ccccc2)o1)Nc1ccc(Cl)cc1", "RECORDED_MEASUREMENT": "> 100 µM"}
{"COMPOUND": "CCOP(=O)(CC(=O)C1=C(O)C(CCCNC(=O)OC(C)(C)C)N(Cc2ccc(OC)c(OC)c2)C1=O)OCC (stereo unspecified)", "RECORDED_MEASUREMENT": "> 100 µM"}
{"COMPOUND": "CN(C)c1ccc(/C=C2\\CNC/C(=C\\c3ccc(N(C)C)cc3)C2=O)cc1", "RECORDED_MEASUREMENT": "98.2 µM"}
{"COMPOUND": "CC(=O)O[C@H]1[C@@H]2[C@@H]3[C@@H](C[C@H]1C)[C@@H](C)CO[C@@]1(C)CC/C=C(/C)C[C@@H]2O[C@@H]31", "RECORDED_MEASUREMENT": "> 100 µM"}

----------
system: KM12 colon; experiment: NCI tumour cell line growth inhibition, 48 h; in the data active means GI50 below about 0.43 µM; inactive means the rest
Classes used: t (active), f (inactive)

{"COMPOUND": "COc1cc(NN=C(c2ccc(O)cc2)c2ccc(O)cc2)c([N+](=O)[O-])cc1[N+](=O)[O-]", "TARGET_DESC": "KM12 colon", "CATEGORY_LABEL": "f"}
{"COMPOUND": "COc1cc(/C=C/C(=O)c2cc(F)c(Cl)cc2Cl)cc(OC)c1OC", "TARGET_DESC": "KM12 colon", "CATEGORY_LABEL": "f"}
{"COMPOUND": "CC(=O)OCC1OC(OC2CC3C(C)(C)C(OC(C)=O)CC[C@]3(C)C3CCC45CC4(CC[C@H]5C(C)CC(O)C4OC4(C)C)[C@]23C)C(O)C(O)C1O (stereo partly specified)", "TARGET_DESC": "KM12 colon", "CATEGORY_LABEL": "f"}
{"COMPOUND": "O=C(Oc1ccc([N+](=O)[O-])cc1)N1CCN(Cc2cccc(Oc3ccccc3)c2)CC1", "TARGET_DESC": "KM12 colon", "CATEGORY_LABEL": "f"}
{"COMPOUND": "COc1cc2c3c(n(CCCN)c(=O)c2cc1OC)-c1ccc(F)cc1C3=O", "TARGET_DESC": "KM12 colon", "CATEGORY_LABEL": "f"}
{"COMPOUND": "O=c1cccc(C#Cc2ccccc2)o1", "TARGET_DESC": "KM12 colon", "CATEGORY_LABEL": "f"}
{"COMPOUND": "O=C1/C(=C/c2ccccc2)SC(=Nc2ccccc2)N1Nc1ccccc1", "TARGET_DESC": "KM12 colon", "CATEGORY_LABEL": "f"}
{"COMPOUND": "C=C(CN1CCN(c2cccc(C(F)(F)F)c2)CC1)c1ccc(C(=O)Nc2ccccc2N)cc1", "TARGET_DESC": "KM12 colon", "CATEGORY_LABEL": "f"}
{"COMPOUND": "CCCCCCCCOc1ccc(/C=N/Nc2cc(C)nc3ccc(Cl)cc23)cc1", "TARGET_DESC": "KM12 colon", "CATEGORY_LABEL": "f"}
{"COMPOUND": "O=C1c2cccnc2-c2nc(/C=C/c3ccccc3)cc3c2c1nc1ccccc13", "TARGET_DESC": "KM12 colon", "CATEGORY_LABEL": "f"}
{"COMPOUND": "COc1cc2c3c(n(CCCN4CCN(C)CC4)c(=O)c2cc1OC)-c1cc2c(cc1C3=O)OCO2", "TARGET_DESC": "KM12 colon", "CATEGORY_LABEL": "f"}
{"COMPOUND": "COc1ccc2cc(C(=O)/C=C/c3cccc(Cl)c3Cl)ccc2c1", "TARGET_DESC": "KM12 colon", "CATEGORY_LABEL": "f"}
{"COMPOUND": "CN(C)CCNC(=O)c1cccc2cc3ccccc3nc12", "TARGET_DESC": "KM12 colon", "CATEGORY_LABEL": "f"}
{"COMPOUND": "C#CCN1CCN(C(=S)N/N=C(\\C)c2ccccn2)CC1", "TARGET_DESC": "KM12 colon", "CATEGORY_LABEL": "t"}
{"COMPOUND": "CC[C@@]1(O)C(=O)OCc2c1cc1n(c2=O)Cc2cc3cc(OC)ccc3nc2-1", "TARGET_DESC": "KM12 colon", "CATEGORY_LABEL": "t"}
{"COMPOUND": "Nc1ccc(C#Cc2cncnc2Nc2ccc(OCc3cccc(F)c3)c(Cl)c2)cc1", "TARGET_DESC": "KM12 colon", "CATEGORY_LABEL": "f"}

----------
system: RXF 393 renal; assay: NCI tumour cell line growth inhibition, 48 h
A collection of compounds and their measured TGI

{"COMPOUND": "CC1C=C(OC(=O)c2ccccc2)C(=O)C(n2cc(F)c(=O)n(C(=O)c3ccccc3)c2=O)O1 (stereo not drawn)", "TGI": "81.7 µM"}
{"COMPOUND": "C=CCN1C(=O)/C(=C/c2ccc(C)cc2)N=C1SC/C=C/C", "TGI": "46.8 µM"}
{"COMPOUND": "O=C(O)c1cc2ccccc2c(N=Nc2c([N+](=O)[O-])cc([N+](=O)[O-])cc2S(=O)(=O)O)c1O", "TGI": "> 100 µM"}
{"COMPOUND": "CC1CCCC(C(O)CC2CC(=O)N(c3ccccc3)C(=O)C2)C1=O (stereo not drawn)", "TGI": "> 100 µM"}
{"COMPOUND": "NC(=O)c1n[nH]n(-c2ccccc2)c1=O", "TGI": "> 100 µM"}
{"COMPOUND": "C(CCc1nnc2c(n1)CCCC2)Cc1nnc2c(n1)CCCC2", "TGI": "> 100 µM"}
{"COMPOUND": "CCOC(=O)/C=C1\\SC(=Nc2ccc(C#N)cc2)N(CCN2C(=O)/C(=C/C(=O)OCC)SC2=Nc2ccc(C#N)cc2)C1=O", "TGI": "9.39 µM"}
{"COMPOUND": "O=S(=O)(NC(=S)Nc1ccccc1)c1ccc(N2N=C3c4ccccc4CC3C2c2cccs2)cc1 (stereo not drawn)", "TGI": "> 100 µM"}
{"COMPOUND": "Cc1ccc(NS(=O)(=O)c2cc(C(C)(C)C)ccc2OCCOCCOCCOc2ccc(C(C)(C)C)cc2S(=O)(=O)Nc2ccc(C)cc2)cc1", "TGI": "> 100 µM"}
{"COMPOUND": "CCCCCCCCCCCCCCCCCCNc1ccn(C2OC(COP(=O)(O)O)C(O)C2O)c(=O)n1 (stereo not drawn)", "TGI": "> 100 µM"}
{"COMPOUND": "NC1CC2C3CCC2C1C3=O (stereo not drawn)", "TGI": "> 100 µM"}
{"COMPOUND": "COc1cc(NN=C(c2ccc(O)cc2)c2ccc(O)cc2)c([N+](=O)[O-])cc1[N+](=O)[O-]", "TGI": "22.9 µM"}
{"COMPOUND": "C[C@@]12CC[C@H]3[C@@H]4CCC(=O)N[C@@]4(C)CC[C@@H]3[C@@]1(C)CC[C@H](OC(=O)Cc1ccc(N(CCCl)CCCl)cc1)C2", "TGI": "32 µM"}
{"COMPOUND": "CC1=C/C(=N/N2C(=O)/C(=C/c3ccc(Cl)cc3)N=C2c2ccccc2)CC(C)(C)C1", "TGI": "> 100 µM"}
{"COMPOUND": "Nc1nc2c(c3ncccc13)C(c1cccc(Cl)c1)Cc1ncccc1-2 (stereo not drawn)", "TGI": "4.9 µM"}
{"COMPOUND": "COc1cc(-c2oc3c(OC)c(OC)cc(O)c3c(=O)c2OC)ccc1O", "TGI": "> 100 µM"}
{"COMPOUND": "CCSc1nc2sc(C)c(C)c2c(=O)n1-c1ccc(C(=O)O)cc1", "TGI": "> 100 µM"}
{"COMPOUND": "COc1ccc(CNc2nc(NCc3ccc(OC)cc3)nc(Nc3ccccc3)n2)cc1", "TGI": "> 100 µM"}
